From: paper PMC10764318

- measured-target: T1, SARS-CoV-2 WA-1 RBD (SARS-CoV-2, UniProt P0DTC2 331-527)
- T1 construct: source: Expi293F, purified (Ni-NTA)
- procedure-summary: BLI
- study-conditions: both partners purified
# Kd annotations
Your answer should be a plain number; it is taken to be in pM.

Recorded results for 3 binders are shown here.
binder	Kd [pM]
WRAIR-5011 (antibody, V domains shown, also called CoV_5011; source: Expi293F, transfected, purified (Protein A magnetic beads)) V domain 1: EVQLVQSGAEIKQPGASVKLSCKASGYTFTSYYIHWVRQAPGQGLEWIGLISPYNGNRAYAQNFQGRVTITTDTSTSTVYMELSSLKSEDTAVYYCAGEEYSNYGYFDLWGPGTPITISS V domain 2: SYELTQPPSVSVSPGQTARITCGGDNIGSKNVQWYQQKPAQAPVLVIYDDSERPSGIPERFSGSNSGNTATLTISGVEAGDEADYYCQVWDSSGDHYIFGAGTRLTVLG	690
WRAIR-5005 (antibody, V domains shown, also called CoV_5005; source: Expi293F, transfected, purified (Protein A magnetic beads)) VH: QVQLQESGPGLVKPSETLSLTCAVSGSSVNSGYGWTWLRQPPGKGLEWIGYIGGGSGSTIYNPSLKSRLTISKDTSKNQFSLKLSSVTAADTAVYYCASLDYGTTYSWFDVWGPGVLVTVSS VL: SYELTQPRSVSVSPGQMARITCGGDNIGSKSVQWYQHKPPQAPVLVIYADSERPSGIPERFSGSNSGNTATLTISGVEAGDEADYYCQVWDSSSDVLFGGGTRLTVLG	1140
WRAIR-5020 (antibody, V domains shown, also called CoV_5020; source: Expi293F, transfected, purified (Protein A magnetic beads)) VH: QVQLQESGPGLVKPSETLSLTCAVSGASISSYWWGWIRQPPGKGLEWIGRISGSSGSTSYNPSLKSRVTISTDTSKNQFSLKLSSVTAADTAVYYCASRITIFGLLRSYWGQGVLVTVSS VL: EIVMTQSPATLSLSPRERATLSCRASQSVSSNLAWYQQKPGQAPRLLIYYASNRATGIPDRFSGSGSGTDFTLTISSLEPEDVGLYYCQQESNWPWTFGQGTKVEIKR	13000

Shift focus to the following entry.
Request: Identify the reported Kd for the following entry. WRAIR-5004 (antibody, V domains shown, also called CoV_5004; source: Expi293F, transfected, purified (Protein A magnetic beads)) VH: QVQLVQSGAEIKQPGASVKLSCKASGYTFTTYYIHWVRQAPGQGLEWIGLISPYNGNRGYAQNFQGRVTITTDTSTSTGYMELSSLRSEDTAVYYCTRERVVAAAGYFDYWGQGVLVTVSS VL: SYELTQPPSVSVSPGQTARITCGGDNIGSKNVQWYQQKPAQAPVLVIYDDSERPSGIPERFSGSNSGNTATLTISGVEAGDEAGYSCQVWDSSPDHYIFGAGTRLTVLG
Response: 720
